# target.under.test: Aldo-keto reductase family 1 member B1 (Rattus norvegicus)
# test.description: Inhibition of Rattus norvegicus albino (rat) kidney aldose reductase using DL-glyceraldehyde as substrate assessed as decrease in NADPH concentRattus norvegicus (rat) ion at 10^-4 M after 5 min by spectrophotometrically
Parameter inhibition: see the listing below.
# output: bare number, implied unit %

Known inhibition results, listed for orientation:
| smiles.record | property | readout.unit | readout.number |
| --- | --- | --- | --- |
| Cc1cc(C)n(-c2ccc(=O)n(CC(=O)Nc3ccc(Cl)cc3)n2)n1 | inhibition | % | 0 |
| Cc1cc(C)n(-c2ccc(=O)n(CC(=O)Nc3cccnc3)n2)n1 | inhibition | % | 0 |
| CCOC(=O)Cn1nc(-n2nc(-c3ccccc3)cc2C)ccc1=O | inhibition | % | 0 |

Data request: Any idea what inhibition was measured for Cc1cc(C)n(-c2ccc(=O)n(CC(=O)N3CCN(c4ccccc4F)CC3)n2)n1 ?
Data returned: 0

Data request: Now the same for Cc1nn(-c2ccc(=O)n(CC(=O)Nc3ccc(Cl)cc3)n2)c(C)c1Cl
Data returned: 0
